Assay: Oral bioavailability in ICR mouse at 10 mg/kg by HPLC method
Type: ADME, organism-based
Details: in vivo
quantity-measured: bioavailability (%)
Kindly answer with a numeric value in %, unit omitted.

INSERT INTO measurements (smiles_str, reading) VALUES
  ('Cn1nc(C(N)=O)c2c1-c1nc(Nc3ccc(N4CCOCC4)cn3)ncc1CC2', 25);

Consider the additional compound presented here.
Tell me the measured bioavailability of "CN1CCN(c2ccc(Nc3ncc4c(n3)-c3c(c(C(N)=O)nn3C)CC4)nc2)CC1" , please.
33.2

###

Target: CDK2/Cyclin A2 (Homo sapiens, UniProt P24941)
Assay: Inhibition of CDK2/Cyclin A2 (unknown origin) using FAM-labeled peptide as substrate after 40 mins
pIC50: −log10 of the molar value.
Short version: pIC50 at least 6 is True, less is False.

Check out these entries, answers already filled in.
INSERT INTO measurements (compound, experimental_target, label_value) VALUES
  ('CNC(=O)c1nn(C)c2c1C(C)(C)Cc1cnc(Nc3ccccc3)nc1-2', 'CDK2/Cyclin A2 (Homo sapiens, UniProt P24941)', 'True'),
  ('CN(C)c1ccnc(Nc2ncc3c(n2)-c2c(c(C(N)=O)nn2C)CC3)c1', 'CDK2/Cyclin A2 (Homo sapiens, UniProt P24941)', 'False');

Could you please find out whether "Cc1ccc(Nc2ncc3c(n2)-c2c(c(C(N)=O)nn2C)CC3)cc1" has pIC50 that meets 6 or exceeds it?
True

Then "CN(C)c1ccc(Nc2ncc3c(n2)-c2c(c(C(N)=O)nn2C)CC3)cc1" ?
True

Then "Cn1nc(C(N)=O)c2c1-c1nc(Nc3ccc(N4CCNCC4)cc3)ncc1CC2" ?
True

Then "Cn1nc(C(N)=O)c2c1-c1nc(Nc3ccc(N4CCOCC4)cc3)ncc1CC2" ?
True

Then "CCNC(=O)c1nn(C)c2c1CCc1cnc(Nc3ccccc3)nc1-2" ?
True

Then "CCOC(=O)c1nn(C)c2c1C(C)(C)Cc1cnc(Nc3ccccc3)nc1-2" ?
True

Then "Cn1nc(C(N)=O)c2c1-c1nc(Nc3cccc(N4CCOCC4)c3)ncc1CC2" ?
False

Then CC1Cc2cnc(Nc3ccccc3)nc2-c2c1c(C(N)=O)nn2C (stereo not given) ?
True

Then "CN1CCN(c2ccc(Nc3ncc4c(n3)-c3c(c(C(N)=O)nn3C)CC4)cc2)CC1" ?
True

Then "Cn1nc(C(N)=O)c2c1-c1nc(Nc3ccccc3)ncc1CC2(C)C" ?
True

Then "Cn1nc(C(N)=O)c2c1-c1nc(Nc3ccc(Cl)cc3)ncc1CC2" ?
True

Then "Cn1nc(C(N)=O)c2c1-c1nc(Nc3cccc(N4CCNCC4)c3)ncc1CC2" ?
False
